The reported numbers originate from paper PMC11098746.

Target: Circumsporozoite protein (CSP) (Plasmodium falciparum (isolate 3D7), UniProt Q7K740)
Sequence (Q7K740 19-374): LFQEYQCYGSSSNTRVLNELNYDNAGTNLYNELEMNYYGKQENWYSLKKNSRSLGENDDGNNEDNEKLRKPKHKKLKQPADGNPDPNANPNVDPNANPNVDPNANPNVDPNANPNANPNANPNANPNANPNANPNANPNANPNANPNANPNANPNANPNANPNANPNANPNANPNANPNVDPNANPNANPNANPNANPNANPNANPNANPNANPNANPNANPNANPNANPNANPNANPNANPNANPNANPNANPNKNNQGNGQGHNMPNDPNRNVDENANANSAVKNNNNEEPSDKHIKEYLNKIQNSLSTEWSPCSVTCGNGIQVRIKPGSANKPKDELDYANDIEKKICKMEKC
Test: AVEXIS screen signal:noise (double-corrected)
reportedMetric: binding score

{"binder": "ADP347 (protein, bait human Fc-tagged dimer) MAATLGPLGSWQQWRRCLSARDGSRMLLLLLLLGSGQGPQQVGAGQTFEYLKREHSLSKPYQGVGTGSSSLWNLMGNAMVMTQYIRLTPDMQSKQGALWNRVPCFLRDWELQVHFKIHGQGKKNLHGDGLAIWYTKDRMQPGPVFGNMDKFVGLGVFVDTYPNEEKQQERVFPYISAMVNNGSLSYDHERDGRPTELGGCTAIVRNLHYDTFLVIRYVKRHLTIMMDIDGKHEWRDCIEVPGVRLPRGYYFGTSSITGDLSDNHDVISLKLFELTVERTPEEEKLHRDVFLPSVDNMKLPEMTAPLPPLSGLA", "reportedMetric": "binding score", "observedValue": 0.741}
{"binder": "ADP106 (protein, bait human Fc-tagged dimer) MAGGRCGPQLTALLAAWIAAVAATAGPEEAALPPEQSRVQPMTASNWTLVMEGEWMLKFYAPWCPSCQQTDSEWEAFAKNGEILQISVGKVDVIQEPGLSGRFFVTTLPAFFHAKDGIFRRYRGPGIFEDLQNYILEKKWQSVEPLTGWKSPASLTMSGMAGLFSISGKIWHLHNYFTVTLGIP", "reportedMetric": "binding score", "observedValue": 1.3}
{"binder": "ADP385 (protein, bait human Fc-tagged dimer) TIKANSEACRDGLRAVMECRNVTHLLQQELTEAQKGFQDVEAQAATCNHTVMALMASLDAEKAQGQKKVEELEGEITTLNHKLQDASAEVERLRRENQVLSVRIADKKYYPSSQDSSSAAAPQLLIVLLGLSALLQ", "reportedMetric": "binding score", "observedValue": 0.643}
